System: Mycobacterium tuberculosis
Assay Explanation: Antitubercular activity against Mycobacterium tuberculosis H37Rv infected in mouse primary macrophages assessed as log reduction in bacterial growth at 10 uM measured after 48 hrs relative to control
Type: functional, Primary macrophage
Consider the following compounds and their measured log(activity) readings.
Measured Property: log(activity)

[[record]]
molecular_string = "NNC(=O)c1ccncc1"
subject_of_test = "Mycobacterium tuberculosis"
recorded_measurement = 2.5

[[record]]
molecular_string = "O=[N+]([O-])c1ccc(-c2nnc(NC(=S)Nc3ccc(F)cc3)s2)o1"
subject_of_test = "Mycobacterium tuberculosis"
recorded_measurement = 1.9

[[record]]
molecular_string = "COc1ccc(NC(=S)Nc2nnc(-c3ccc([N+](=O)[O-])s3)s2)cc1"
subject_of_test = "Mycobacterium tuberculosis"
recorded_measurement = 2.2

[[record]]
molecular_string = "CC(=O)c1ccc(S(=O)(=O)Nc2nnc(-c3ccc([N+](=O)[O-])o3)s2)cc1"
subject_of_test = "Mycobacterium tuberculosis"
recorded_measurement = 1.6

[[record]]
molecular_string = "COc1ccc(NC(=S)Nc2nnc(-c3ccc([N+](=O)[O-])o3)s2)cc1"
subject_of_test = "Mycobacterium tuberculosis"
recorded_measurement = 1.7


* * *

Here, each record is paired with measured log(activity) data.
Tested on: Mycobacterium tuberculosis
Assay Explanation: Antibiofilm activity against Mycobacterium tuberculosis assessed as log reduction in bacterial growth at 10 uM measured after 1 week relative to control
Type: functional, H37Rv
Condition Summary: time 1 weeks
Measured Property: log(activity)

[[record]]
compound = "COc1c(N2C[C@@H]3CCCN[C@@H]3C2)c(F)cc2c(=O)c(C(=O)O)cn(C3CC3)c12 [MOXIFLOXACIN]"
recorded_measurement = 1.8

[[record]]
compound = "O=[N+]([O-])c1ccc(-c2nnc(NC(=S)Nc3ccc(Cl)cc3)s2)s1"
recorded_measurement = 1.2

[[record]]
compound = "O=[N+]([O-])c1ccc(-c2nnc(NC(=S)Nc3ccc(F)cc3)s2)o1"
recorded_measurement = 1.3

[[record]]
compound = "COc1ccc(NC(=S)Nc2nnc(-c3ccc([N+](=O)[O-])s3)s2)cc1"
recorded_measurement = 1.5

[[record]]
compound = "CO[C@H]1/C=C/O[C@@]2(C)Oc3c(C)c(O)c4c(O)c(c(/C=N/N5CCN(C)CC5)c(O)c4c3C2=O)NC(=O)/C(C)=C\\C=C\\[C@H](C)[C@H](O)[C@@H](C)[C@@H](O)[C@@H](C)[C@H](OC(C)=O)[C@@H]1C [RIFAMPIN]"
recorded_measurement = 0.9

[[record]]
compound = "COc1ccc(NC(=S)Nc2nnc(-c3ccc([N+](=O)[O-])o3)s2)cc1"
recorded_measurement = 1.8

[[record]]
compound = "NNC(=O)c1ccncc1 [ISONIAZID]"
recorded_measurement = 1

[[record]]
compound = "CC(=O)c1ccc(S(=O)(=O)Nc2nnc(-c3ccc([N+](=O)[O-])o3)s2)cc1"
recorded_measurement = 1.1


* * *

Assay Explanation: Inhibition of N-terminal 6His-taggged Mycobacterium tuberculosis KARI expressed in Escherichia coli BL21 using 2-acetolactate as substrate preincubated for 30 mins followed by substrate addition in presence of NADPH
Checkbox rule: Ki lower than 5 µM = yes; Ki not lower than 5 µM = no.

[[record]]
molecular_string = "CC(=O)c1ccc(S(=O)(=O)Nc2nnc(-c3ccc([N+](=O)[O-])o3)s2)cc1"
class_name = "yes"

[[record]]
molecular_string = "COc1ccc(NC(=S)Nc2nnc(-c3ccc([N+](=O)[O-])o3)s2)cc1"
class_name = "yes"

[[record]]
molecular_string = "O=[N+]([O-])c1ccc(-c2nnc(NC(=S)Nc3ccc(F)cc3)s2)o1"
class_name = "no"

[[record]]
molecular_string = "COc1ccc(NC(=O)Nc2nnc(-c3ccc([N+](=O)[O-])s3)s2)cc1"
class_name = "yes"

[[record]]
molecular_string = "O=[N+]([O-])c1ccc(-c2nnc(NC(=S)Nc3ccc(Cl)cc3)s2)s1"
class_name = "no"

[[record]]
molecular_string = "COc1ccc(NC(=S)Nc2nnc(-c3ccc([N+](=O)[O-])s3)s2)cc1"
class_name = "no"

